- Species on record: Rattus norvegicus
- Test: Open TG-GATES - Regimen: Single
- Format: toxicity, organism-based, Sprague-Dawley
- Parameters: regimen Single, gender Male, age 6 weeks
- Study Conditions: in vivo, po, 0 mg/kg, 9 h, tissue Plasma, route gavage, dose level Control
# key: entry, value: IP

{"Molecule": "CCCCNC(=O)NS(=O)(=O)c1ccc(C)cc1 [TOLBUTAMIDE]", "IP": "9.4 mg/dL"}
{"Molecule": "CCN(CC)C(=S)SSC(=S)N(CC)CC", "IP": "10 mg/dL"}
{"Molecule": "CN(CCOc1ccc(CC2SC(=O)NC2=O)cc1)c1ccccn1.O=C(O)/C=C\\C(=O)O (stereo not given) [ROSIGLITAZONE MALEATE]", "IP": "10 mg/dL"}
{"Molecule": "C=C[C@H]1C[N@@]2CC[C@H]1C[C@@H]2[C@@H](O)c1ccnc2ccc(OC)cc12 [QUINIDINE]", "IP": "9.6 mg/dL"}
{"Molecule": "NS(=O)(=O)c1cc(C(=O)O)c(NCc2ccco2)cc1Cl [FUROSEMIDE]", "IP": "10.2 mg/dL"}
{"Molecule": "Nc1ccc(Cc2ccc(N)cc2)cc1", "IP": "10.5 mg/dL"}
{"Molecule": "O=c1ccc2ccccc2o1 [COUMARIN]", "IP": "11 mg/dL"}
{"Molecule": "CC(S)C(=O)NCC(=O)O (stereo not given) [TIOPRONIN]", "IP": "9.8 mg/dL"}
{"Molecule": "COc1cc2ncnc(Nc3ccc(F)c(Cl)c3)c2cc1OCCCN1CCOCC1 [GEFITINIB]", "IP": "10 mg/dL"}
{"Molecule": "O=C(O)c1ccccc1Nc1ccccc1 [FENAMIC ACID]", "IP": "9.6 mg/dL"}

====

- Organism: Rattus norvegicus
- Test: Open TG-GATES - Regimen: Single
- Assay type: toxicity, organism-based, Sprague-Dawley
- Design: regimen Single, gender Male, age 6 weeks
- Study Conditions: in vivo, po, 0 mg/kg, 6 h, tissue Plasma, route gavage, dose level Control

{"Compound": "CN(CCOc1ccc(CC2SC(=O)NC2=O)cc1)c1ccccn1.O=C(O)/C=C\\C(=O)O (stereo not given) [ROSIGLITAZONE MALEATE]", "PL [mg/dL]": 143.4}
{"Compound": "CN(C/C=C/C#CC(C)(C)C)Cc1cccc2ccccc12", "PL [mg/dL]": 133.4}
{"Compound": "Nc1ccc(Cc2ccc(N)cc2)cc1", "PL [mg/dL]": 131.6}
{"Compound": "COc1ccc([C@@H]2Sc3ccccc3N(CCN(C)C)C(=O)[C@@H]2OC(C)=O)cc1", "PL [mg/dL]": 129.8}
{"Compound": "CC(=O)[C@@]1(O)CC[C@H]2[C@@H]3C=C(Cl)C4=CC(=O)CC[C@]4(C)[C@H]3CC[C@@]21C", "PL [mg/dL]": 132.6}
{"Compound": "NS(=O)(=O)c1cc(C(=O)O)c(NCc2ccco2)cc1Cl [FUROSEMIDE]", "PL [mg/dL]": 143.2}
{"Compound": "C=C[C@H]1C[N@@]2CC[C@H]1C[C@@H]2[C@@H](O)c1ccnc2ccc(OC)cc12", "PL [mg/dL]": 134.8}
{"Compound": "O=C(O)c1ccccc1Nc1ccccc1", "PL [mg/dL]": 136.8}
{"Compound": "CCN(CC)C(=S)SSC(=S)N(CC)CC", "PL [mg/dL]": 124.6}
{"Compound": "CC(S)C(=O)NCC(=O)O (stereo not given)", "PL [mg/dL]": 141.4}
{"Compound": "O=c1ccc2ccccc2o1", "PL [mg/dL]": 144.4}
{"Compound": "CCO", "PL [mg/dL]": 141.8}
{"Compound": "CCCCNC(=O)NS(=O)(=O)c1ccc(C)cc1 [TOLBUTAMIDE]", "PL [mg/dL]": 138.4}
{"Compound": "COc1cc2ncnc(Nc3ccc(F)c(Cl)c3)c2cc1OCCCN1CCOCC1", "PL [mg/dL]": 158.8}
{"Compound": "CN(C)CCCN1c2ccccc2Sc2ccc(Cl)cc21", "PL [mg/dL]": 133.6}
